Data origin: ChEMBL document CHEMBL3882724

system under test: CYP21 (steroid 21-hydroxylase) (Homo sapiens)
Sequence (P08686 whole entry): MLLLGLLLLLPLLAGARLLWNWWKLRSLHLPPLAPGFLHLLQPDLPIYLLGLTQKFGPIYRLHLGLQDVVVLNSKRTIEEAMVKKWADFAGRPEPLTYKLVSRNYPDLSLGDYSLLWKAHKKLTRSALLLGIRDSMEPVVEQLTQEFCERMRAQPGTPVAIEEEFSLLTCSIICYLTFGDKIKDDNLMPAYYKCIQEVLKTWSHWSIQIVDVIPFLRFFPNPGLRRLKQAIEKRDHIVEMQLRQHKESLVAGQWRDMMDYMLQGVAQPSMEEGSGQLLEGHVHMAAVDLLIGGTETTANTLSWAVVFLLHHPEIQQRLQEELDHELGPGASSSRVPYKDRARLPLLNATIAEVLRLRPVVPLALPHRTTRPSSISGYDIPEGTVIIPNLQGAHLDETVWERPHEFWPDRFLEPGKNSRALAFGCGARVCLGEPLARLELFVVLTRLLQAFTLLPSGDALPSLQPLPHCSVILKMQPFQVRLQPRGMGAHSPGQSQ
protocol details: Inhibition of human CYP21 transfected in HEK293 cells assessed as decrease in conversion of progesterone to 11-deoxycorticosterone preincubated for 5 hrs followed by progesterone addition measured after 20 hrs by ELISA
Type: cell-based
Set-up: concentration or dose not given beside the values
assay context: HEK293 cells transfected with human CYP21, probe progesterone
I'd appreciate it if you could supply inhibition at 20 h values for the items below.

So, C[C@]12CC[C@H]3[C@@H](CC=C4C[C@@H](O)CC[C@@]43C)C1=CC=C2c1cncc(C(F)F)c1 ? Its inhibition at 20 h was < 10%

So, C[C@]12CC[C@H]3[C@@H](CC=C4C[C@H](O)CC[C@@]43C)C1=CC=C2c1cccnc1 ? Its inhibition at 20 h was ≥ 50%

So, C[C@]12CC[C@H]3[C@@H](CCC4=CC(=O)CC[C@@]43C)C1=CC=C2c1cncc(Cl)c1 ? Its inhibition at 20 h was 10 to 50%

So, CN1C(=O)C[C@@]2(C)C1=CC[C@@H]1[C@@H]2CC[C@]2(C)C(c3cccnc3)=CC[C@@H]12 ? Its inhibition at 20 h was ≥ 50%

So, CCNC(=O)N[C@@H]1CC[C@@]2(C)C(=CC[C@@H]3[C@@H]2CC[C@]2(C)C(n4ccnc4)=CC[C@@H]32)C1 ? Its inhibition at 20 h was ≥ 50%

So, CC(=O)N[C@@H]1CC[C@@]2(C)C(CC[C@H]3C4=CC=C(c5cccnc5)[C@@]4(C)CC[C@@H]32)C1 (some centres not stated) ? Its inhibition at 20 h was ≥ 50%

So, C[C@]12CC[C@H]3[C@@H](CC=C4C[C@@H](O)CC[C@@]43C)C1=CC=C2c1cncc(F)c1 ? Its inhibition at 20 h was ≥ 50%
